- test-system: T1, human amylin-3 (a) receptor (human, UniProt P30988 25-474; O60896 24-148)
- T1 sequence (looked up) 1: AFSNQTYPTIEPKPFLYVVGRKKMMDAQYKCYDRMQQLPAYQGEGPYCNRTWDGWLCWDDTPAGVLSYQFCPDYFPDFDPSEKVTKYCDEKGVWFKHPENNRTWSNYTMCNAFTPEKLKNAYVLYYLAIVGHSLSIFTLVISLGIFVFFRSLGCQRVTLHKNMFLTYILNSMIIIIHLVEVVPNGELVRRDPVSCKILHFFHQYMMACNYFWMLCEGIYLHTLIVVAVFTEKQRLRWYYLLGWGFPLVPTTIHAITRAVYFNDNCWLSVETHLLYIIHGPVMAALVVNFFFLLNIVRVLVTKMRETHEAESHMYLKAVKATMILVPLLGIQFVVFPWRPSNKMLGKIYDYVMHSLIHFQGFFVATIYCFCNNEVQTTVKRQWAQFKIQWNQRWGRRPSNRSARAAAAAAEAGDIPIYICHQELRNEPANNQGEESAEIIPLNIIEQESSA
- T1 sequence (looked up) 2: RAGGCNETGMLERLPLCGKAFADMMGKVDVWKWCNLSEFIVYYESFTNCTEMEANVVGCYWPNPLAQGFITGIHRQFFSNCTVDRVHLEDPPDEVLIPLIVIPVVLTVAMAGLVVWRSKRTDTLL
- method-description: cell-based or functional assay
Starred links: 1 amine or outer side, 2 acyl side, 3 side chain; linkers in the order of their positions; H or OH if unused. Non-standard residues stand in square brackets, D forms with d. Groups on a side chain read outwards from the residue. *: point of attachment. Butyryl(4-SO2NHCO(CH2)16Tz) = O=C(CCCCCCCCCCCCCCCCc1nnn[nH]1)NS(=O)(=O)CCCC(=O)*; Decanoyl(10-(4-HOOC-PhO)) = O=C(O)c1ccc(OCCCCCCCCCC(=O)*)cc1; C20 diacid = O=C(O)CCCCCCCCCCCCCCCCCCC(=O)*; C18 diacid = O=C(O)CCCCCCCCCCCCCCCCC(=O)*; C16 diacid = O=C(O)CCCCCCCCCCCCCCC(=O)*; γGlu = O=C(O)[C@H](CCC(=O)[*:2])N[*:1]; Trx = NC[C@H]1CC[C@H](C(=O)O)CC1; AEEA = NCCOCCOCC(=O)O; Aib = CC(C)(N)C(=O)O
// class assignment uses Human AmyR3 potency [EC50 (pM)] with these ranges: low value: < 20 pM; medium value: ≥ 20 pM and < 30 pM; high value: ≥ 30 pM

binder	class-label
Compound 0071 (peptide) peptide: H[Aib]EGTFTSDVSSYLEGQAAK([AEEA-AEEA-γGlu-C18 diacid])EFIAWLVRGRGGQEPGQEPK([AEEA-AEEA-γGlu-C18 diacid])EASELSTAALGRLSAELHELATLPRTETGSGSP-NH2	high value
Compound 0439 (not fully specified (residue 21)) peptide: H[Aib]EGTFTSDVSSYLEEQAARKFIEWLVRGRGEASELSTAALGRLSAELHELATLPRTETGSGSP-NH2	low value
Compound 0052 (peptide) peptide: H[Aib]EGTFTSDVSSYLEGQAAK([AEEA-AEEA-γGlu-C18 diacid])EFIAWLVRGRGGGGGGGGGEASELSTAALGRLSAELHELATLPRTETGSGSP-NH2	low value
Compound 0115 (peptide) peptide: H[Aib]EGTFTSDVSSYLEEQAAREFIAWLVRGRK([AEEA-AEEA-γGlu-C18 diacid])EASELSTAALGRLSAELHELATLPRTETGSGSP-NH2	medium value
Compound 0231 (peptide) peptide: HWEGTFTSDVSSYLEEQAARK([AEEA-AEEA-γGlu-Decanoyl(10-(4-HOOC-PhO))])FIEWLVRGRGEGGGGGASELSTAALGRLSK([AEEA-AEEA-γGlu-Decanoyl(10-(4-HOOC-PhO))])ELHELATLPRTETGSGSP-NH2	high value
Compound 0518 (peptide) peptide: H[Aib]EGTFTSDVSK([AEEA-AEEA-γGlu-Trx-C20 diacid])YLEEQAAREFIAWLVRGRGGGGGEASELSTAALGRLSAELHELATLPRTETGSGSP-NH2	low value
Compound 0103 (peptide) peptide: H[Aib]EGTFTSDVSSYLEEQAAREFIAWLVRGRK(Butyryl(4-SO2NHCO(CH2)16Tz))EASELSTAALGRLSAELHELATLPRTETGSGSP-NH2	low value
Compound 0010 (peptide) peptide: H[Aib]EGTFTSDVSSYLEGQAAREFIAWLVRGRGEGEGEK([AEEA-AEEA-γGlu-C18 diacid])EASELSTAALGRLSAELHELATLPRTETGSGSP-NH2	high value
Compound 0086 (peptide) peptide: H[Aib]EGTFTSDVSSYLEEQAARK([AEEA-AEEA-γGlu-C16 diacid])FIEWLVRGK([AEEA-AEEA-γGlu-C16 diacid])GEGGEASELSTAALGRLSAELHELATLPRTETGSGSP-NH2	high value
Compound 0145 (peptide) peptide: H[Aib]EGTFTSDVSSYLEEQAAREFIAWLVRGRGK(Butyryl(4-SO2NHCO(CH2)16Tz))GGGASELSTAALGRLSAELHELATLPRTETGSGSP-NH2	low value
Compound 0281 (peptide) peptide: H[Aib]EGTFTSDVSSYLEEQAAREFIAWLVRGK([AEEA-AEEA-γGlu-C16 diacid])GGGGGEASELSTAALGRLSAELHELK([AEEA-AEEA-γGlu-C16 diacid])TLPRTETGSGSP-NH2	high value
Compound 0438 (not fully specified (residue 31)) peptide: H[Aib]EGTFTSDVSSYLEEQAAREFIEWLVRGRKEASELSTAALGRLSAELHELATLPRTETGSGSP-NH2	medium value
Compound 0144 (peptide) peptide: H[Aib]EGTFTSDVSSYLEEQAAREFIAWLVK([AEEA-AEEA-γGlu-C18 diacid])GRGGGGGEASELSTAALGRLSAELHELATLPRTETGSGSP-NH2	low value
Compound 0272 (peptide) peptide: HWEGTFTSDK([AEEA-AEEA-γGlu-Trx-C20 diacid])SSYLEEQAAREFIEWLVRGRGEASELSTAALGRLSAELHELATLPRTETGSGSP-NH2	low value
Compound 0576 (not fully specified (residue 21)) peptide: H[Aib]EGTFTSDVSK([AEEA-AEEA-γGlu-C16 diacid])YLEEQAARKFIEWLVRGRGEGGGGGASELSTAALGRLSAELHELATLPRTETGSGSP-NH2	low value
Compound 0263 (peptide) peptide: H[Aib]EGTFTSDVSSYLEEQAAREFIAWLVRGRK([AEEA-AEEA-γGlu-Trx-C20 diacid])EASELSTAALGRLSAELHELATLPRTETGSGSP-NH2	medium value

The reported measurements were obtained from patent US20260132182A1.
